compounds and their reported Kb
Molecular target: UniProt:P43088
Sequence (P43088 whole entry): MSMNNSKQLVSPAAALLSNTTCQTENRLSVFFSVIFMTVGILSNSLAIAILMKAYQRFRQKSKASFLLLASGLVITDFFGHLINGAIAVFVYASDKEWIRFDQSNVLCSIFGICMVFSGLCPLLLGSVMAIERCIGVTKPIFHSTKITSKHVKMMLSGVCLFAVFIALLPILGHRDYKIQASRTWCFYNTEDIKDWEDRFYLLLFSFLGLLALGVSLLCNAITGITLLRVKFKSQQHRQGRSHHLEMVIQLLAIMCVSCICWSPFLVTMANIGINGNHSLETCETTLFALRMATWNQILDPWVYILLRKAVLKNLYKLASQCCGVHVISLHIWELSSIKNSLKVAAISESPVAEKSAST
Assay: Prostanoid receptor antagonism (FLIPR), FP
Type: cell-based
Conditions: Table 1
measuredAttribute: Kb (nM)

{"compound": "CCCCCCCCNC(=O)c1coc([C@@H]2CCCN2Cc2cc(F)ccc2CCC(=O)NS(=O)(=O)C(F)(F)F)n1 [Example 12e]", "subjectOfTest": "UniProt:P43088", "reportedMeasurement": 270}
{"compound": "COc1ccc(CCC(=O)NS(=O)(=O)C(F)(F)F)c(CN2CCC[C@H]2c2nc(C(=O)NCCCCC3CCCCC3)co2)c1 [Example 12c]", "subjectOfTest": "UniProt:P43088", "reportedMeasurement": 270}
{"compound": "O=C(CCc1ccc(F)cc1CN1CCC[C@H]1c1nc(C(=O)NCCCCC2CCCCC2)co1)NS(=O)(=O)C(F)(F)F [Example 12a]", "subjectOfTest": "UniProt:P43088", "reportedMeasurement": 350}
{"compound": "CCCCCCCCNC(=O)c1coc([C@@H]2CCCN2Cc2cc(OC)ccc2CCC(=O)NS(=O)(=O)C(F)(F)F)n1 [Example 12f]", "subjectOfTest": "UniProt:P43088", "reportedMeasurement": 380}
{"compound": "O=C(CCc1cc2c(cc1CN1CCC[C@H]1c1nc(C(=O)NCCCCC3CCCCC3)co1)OCO2)NS(=O)(=O)C(F)(F)F [Example 12d]", "subjectOfTest": "UniProt:P43088", "reportedMeasurement": 360}
{"compound": "O=C(CCc1ccc(Cl)cc1CN1CCC[C@H]1c1nc(C(=O)NCCCCC2CCCCC2)co1)NS(=O)(=O)C(F)(F)F [Example 12b]", "subjectOfTest": "UniProt:P43088", "reportedMeasurement": 460}
